- System: Oryctolagus cuniculus
- Procedure Summary: Toxicity in Chinchilla rabbit assessed as weight loss at 100 nmol/kg, iv using micellar formulation measured up to 2 months post dose
- Format: organism-based
- Test Parameters: in vivo
Readout Label: Activity

CCCCCCCCCCCCCCC(CCCCCCCCCCCCCC)C(=O)NCCCC[C@H](NC(=O)CC[C@@H](NC(=O)[C@H](CC)NC(=O)CO[C@H]1[C@H](O[C@@H]2O[C@H](CO)[C@@H](O)[C@H](O)[C@H]2NC(C)=O)[C@@H](CO)OC(O)[C@@H]1NC(C)=O)C(N)=O)C(=O)O (some centres undefined) :: Non-Toxic
CCCCCCCCCCCCCCCCCC(=O)OC[C@H]1OC(O)[C@H](NC(C)=O)[C@@H](OCC(=O)N[C@@H](CC)C(=O)N[C@H](CCC(=O)O)C(N)=O)[C@@H]1O (some centres undefined) :: Non-Toxic
CCCCCCCCCCCCCCCCCC(=O)NCCCC[C@H](NC(=O)CC[C@@H](NC(=O)[C@H](CC)NC(=O)CO[C@H]1[C@H](O)[C@@H](CO)OC(O)[C@@H]1NC(C)=O)C(N)=O)C(=O)O (some centres undefined) :: Non-Toxic
CCCCCCCCCCCCCCCCCC(=O)N[C@H]1[C@H](O[C@H]2[C@H](OCC(=O)N[C@@H](CC)C(=O)N[C@H](CCC(=O)O)C(N)=O)[C@@H](NC(C)=O)C(O)O[C@@H]2CO)O[C@H](CO)[C@@H](O)[C@@H]1O (some centres undefined) :: Non-Toxic

----------
- Tested on: Oryctolagus cuniculus
- Procedure Summary: Toxicity in Chinchilla rabbit assessed as weight loss at 100 nmol/kg, iv using micellar formulation measured up to 2 months post dose
- Format: organism-based
- Test Parameters: in vivo
Readout Label: Activity

CCCCCCCCCCCCCCC(CCCCCCCCCCCCCC)C(=O)N[C@H]1[C@H](O[C@H]2[C@H](OCC(=O)N[C@@H](CC)C(=O)N[C@H](CCC(=O)O)C(N)=O)[C@@H](NC(C)=O)C(O)O[C@@H]2CO)O[C@H](CO)[C@@H](O)[C@@H]1O (some centres not stated) :: Non-Toxic
CCCCCCCCCCCCCCC(CCCCCCCCCCCCCC)C(=O)NCCCC[C@H](NC(=O)CC[C@@H](NC(=O)[C@H](CC)NC(=O)CO[C@H]1[C@H](O)[C@@H](CO)OC(O)[C@@H]1NC(C)=O)C(N)=O)C(=O)O (some centres not stated) :: Non-Toxic

----------
- Test system: Oryctolagus cuniculus
- Procedure Summary: Toxicity in New Zealand albino rabbit assessed as weight loss at 100 nmol/kg, sc using liposomal formulation measured up to 2 months post dose
- Type: organism-based
- Test Parameters: in vivo
Readout Label: Activity

CCCCCCCCCCCCCCCCCC(=O)NCCCC[C@H](NC(=O)CC[C@@H](NC(=O)[C@H](CC)NC(=O)CO[C@H]1[C@H](O)[C@@H](CO)OC(O)[C@@H]1NC(C)=O)C(N)=O)C(=O)O (stereo not given in full) :: Non-Toxic
CCCCCCCCCCCCCCC(CCCCCCCCCCCCCC)C(=O)NCCCC[C@H](NC(=O)CC[C@@H](NC(=O)[C@H](CC)NC(=O)CO[C@H]1[C@H](O)[C@@H](CO)OC(O)[C@@H]1NC(C)=O)C(N)=O)C(=O)O (stereo not given in full) :: Non-Toxic
CCCCCCCCCCCCCCCCCC(=O)N[C@H]1[C@H](O[C@H]2[C@H](OCC(=O)N[C@@H](CC)C(=O)N[C@H](CCC(=O)O)C(N)=O)[C@@H](NC(C)=O)C(O)O[C@@H]2CO)O[C@H](CO)[C@@H](O)[C@@H]1O (stereo not given in full) :: Non-Toxic
CCCCCCCCCCCCCCCCCC(=O)OC[C@H]1OC(O)[C@H](NC(C)=O)[C@@H](OCC(=O)N[C@@H](CC)C(=O)N[C@H](CCC(=O)O)C(N)=O)[C@@H]1O (stereo not given in full) :: Non-Toxic

Now for the molecule whose Activity we want.
Task item: Looking for the measured Activity of CCCCCCCCCCCCCCC(CCCCCCCCCCCCCC)C(=O)OC[C@H]1OC(O)[C@H](NC(C)=O)[C@@H](OCC(=O)N[C@@H](CC)C(=O)N[C@H](CCC(=O)O)C(N)=O)[C@@H]1O (stereo not given in full) , can you help?
Reply: Non-Toxic

Where do the numbers come from? From ChEMBL document CHEMBL4024746.
